Entry source: paper PMC8747639

tgt: ACE (from rabbit lung) (Oryctolagus cuniculus)
Construct: ACE (from rabbit lung) and hippuryl-histidyl-leucine (HHL) were purchased from Sigma Co; purchased Sigma Co., St. Louis, MO, USA; host or cells: rabbit lung (tissue-derived)
Sequence (P12822 34-1310): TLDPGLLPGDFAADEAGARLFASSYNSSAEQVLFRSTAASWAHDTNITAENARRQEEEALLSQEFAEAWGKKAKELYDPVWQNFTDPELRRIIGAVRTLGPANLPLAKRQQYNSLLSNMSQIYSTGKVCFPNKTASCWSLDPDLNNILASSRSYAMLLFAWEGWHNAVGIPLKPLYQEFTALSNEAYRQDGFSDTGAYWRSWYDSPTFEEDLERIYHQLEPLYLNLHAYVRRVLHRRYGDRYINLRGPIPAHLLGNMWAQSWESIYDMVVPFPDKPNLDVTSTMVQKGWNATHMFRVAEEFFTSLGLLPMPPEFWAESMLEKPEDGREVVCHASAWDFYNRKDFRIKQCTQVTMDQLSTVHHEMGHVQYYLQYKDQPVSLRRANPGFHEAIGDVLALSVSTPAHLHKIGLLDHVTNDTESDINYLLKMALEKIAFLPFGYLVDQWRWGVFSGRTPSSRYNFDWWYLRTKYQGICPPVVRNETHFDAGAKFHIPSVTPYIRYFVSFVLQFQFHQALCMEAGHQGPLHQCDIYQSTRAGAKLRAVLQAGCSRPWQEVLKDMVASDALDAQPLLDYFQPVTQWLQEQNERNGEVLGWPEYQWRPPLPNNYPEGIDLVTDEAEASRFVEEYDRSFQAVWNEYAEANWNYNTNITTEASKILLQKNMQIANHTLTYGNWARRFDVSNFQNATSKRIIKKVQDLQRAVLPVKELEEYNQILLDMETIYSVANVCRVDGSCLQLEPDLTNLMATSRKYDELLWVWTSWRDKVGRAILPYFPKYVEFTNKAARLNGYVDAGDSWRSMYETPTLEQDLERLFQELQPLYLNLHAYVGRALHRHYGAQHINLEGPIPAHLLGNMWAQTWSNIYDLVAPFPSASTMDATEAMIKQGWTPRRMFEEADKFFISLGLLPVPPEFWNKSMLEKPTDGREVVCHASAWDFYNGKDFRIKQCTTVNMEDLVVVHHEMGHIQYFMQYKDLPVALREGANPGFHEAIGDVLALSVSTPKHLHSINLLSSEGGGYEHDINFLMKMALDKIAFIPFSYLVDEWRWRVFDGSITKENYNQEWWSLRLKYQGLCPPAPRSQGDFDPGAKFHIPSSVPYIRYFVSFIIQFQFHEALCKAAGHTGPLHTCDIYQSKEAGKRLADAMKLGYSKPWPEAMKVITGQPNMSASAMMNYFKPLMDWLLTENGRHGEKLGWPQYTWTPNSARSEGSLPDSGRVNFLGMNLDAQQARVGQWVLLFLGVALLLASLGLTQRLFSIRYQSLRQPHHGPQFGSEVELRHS
assay-remarks: ACE inhibitory activity (HHL substrate, absorbance)
Type: biochemical
measurement-setup: calculated by linear regression of the curve; read-out: IC50 on angiotensin converting enzyme (ACE)
No end group written: not given here.
# pIC50 annotations
Friendly reminder that pIC50 comes from taking -log10 of the concentration in mol/L.

Entry VERGRRITSV [VERGRRITSV, Val-Glu-Arg-Gly-Arg-Arg-Ile-Thr-Ser-Val] , pIC50 reported as 5.17

Next:
Reported pIC50 for FVIEPNITPA [FVIEPNITPA, Phe-Val-Ile-Glu-Pro-Asn-Ile-Thr-Pro-Ala] was 5.20
